Assay: Pharmacokinetic evaluation: plasma concentration in dogs
Assay type: in vivo, Male beagle dogs
Conditions: dog, iv 10 mg/kg, 1/4 h
assayMetric: concentration at 0.25 h (µg/mL)
Give bare numbers, in µg/mL.

Form: molecule = CC(C)CP(=O)(O)C/C(=C\C1CCCCC1)C(=O)O ; concentration at 0.25 h = 71

----------
Assay: Pharmacokinetic evaluation: plasma concentration in rats
Format: in vivo, Male SD rats
Conditions: rat, in vivo; iv 10 mg/kg (cilastatin dose not given), 1/2 h
assayMetric: concentration at 0.5 h (ng/mL)
Give bare numbers, in ng/mL.

Recorded concentration at 0.5 h (molecule CC1(C)C[C@@H]1C(=O)N/C(=C\CCCCSC[C@H](N)C(=O)O)C(=O)O [Cilastatin, reference compound] ): 5800
